subject of test: c-KIT VVDV kinase (Homo sapiens, UniProt P10721, D816V/DEL559-560)
Construct: This construct contains residues T544-V976 of cKit; GST (N); TEV cleavage site (internal)
Sequence (P10721 with tags, fused parts or gaps DEL559-560/D816V): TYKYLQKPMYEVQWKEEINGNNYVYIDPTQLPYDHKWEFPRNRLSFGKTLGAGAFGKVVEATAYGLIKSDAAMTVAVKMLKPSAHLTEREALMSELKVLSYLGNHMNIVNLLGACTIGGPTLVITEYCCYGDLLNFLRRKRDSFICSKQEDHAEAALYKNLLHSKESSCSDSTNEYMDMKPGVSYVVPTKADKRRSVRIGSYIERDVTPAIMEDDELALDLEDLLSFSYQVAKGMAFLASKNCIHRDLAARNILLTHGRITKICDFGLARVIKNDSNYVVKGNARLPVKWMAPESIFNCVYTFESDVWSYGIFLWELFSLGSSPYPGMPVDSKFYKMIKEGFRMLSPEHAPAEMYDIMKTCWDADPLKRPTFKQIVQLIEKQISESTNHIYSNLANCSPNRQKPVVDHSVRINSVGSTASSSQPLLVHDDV
test method notes: cKIT-VVDV kinase Assay
condition summary: enzymatic assay; V559+V560 deletions and D816V mutation
pIC50: −log10 of the molar value.
Parameter pIC50: see the listing below.

                                   compound  value_type  endpoint_value
0  CCn1c(=O)c(-c2cc(NC(=O)Nc3cc(F)ccc3F)c(F)cc2C)cc2cnc(NC)cc21 [Example 61]       pIC50          > 8.00
1  CNc1cc2c(cn1)cc(-c1ccc(F)c(NC(=O)Nc3ccccc3)c1)c(=O)n2C(C)C [Example 5]       pIC50    6.00 to 7.00
2  CCn1c(=O)c(-c2cc(NC(=O)Nc3cc(F)cc(F)c3)c(F)cc2C)cc2cnc(NC)cc21 [Example 60]       pIC50    7.00 to 8.00

Qu. I'd like to know its pIC50. The compound in question is CCn1c(=O)c(-c2cc(NC(=O)Nc3cccc(F)c3F)c(F)cc2Cl)cc2cnc(NC)cc21 [Example 4]
Ans. > 8.00

Qu. How about CCn1c(=O)c(-c2ccc(F)c(NC(=O)Nc3cccc(C#N)c3)c2)cc2cnc(NC)cc21 [Example 12] ?
Ans. 6.00 to 7.00
